Protocol Text: self-splicing fitness, log relative to wild type (ln ratio); higher = more splicing; Tetrahymena group I intron in knt gene, E. coli kanamycin selection, DiMSum; sequences stand for … in CUCUCU…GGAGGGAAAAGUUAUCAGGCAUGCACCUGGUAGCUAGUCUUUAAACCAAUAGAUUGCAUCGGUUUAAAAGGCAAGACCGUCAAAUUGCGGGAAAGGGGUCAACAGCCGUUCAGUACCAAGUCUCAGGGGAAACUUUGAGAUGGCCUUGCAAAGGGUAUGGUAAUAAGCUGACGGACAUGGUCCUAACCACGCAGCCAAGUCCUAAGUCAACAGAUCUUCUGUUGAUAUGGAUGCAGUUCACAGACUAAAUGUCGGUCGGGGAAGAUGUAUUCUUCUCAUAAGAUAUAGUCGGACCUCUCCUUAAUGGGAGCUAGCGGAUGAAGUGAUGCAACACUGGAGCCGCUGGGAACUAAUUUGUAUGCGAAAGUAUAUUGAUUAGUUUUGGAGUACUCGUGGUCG;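 also: selection with 25 µg/mL kanamycin versus none on LB agar overnight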
Condition: 30 °C
# cutoff -2 applies to self-splicing fitness (ln); >= gives true (1), < gives false (0)

# Residue Sequence, Answer Label
data = [
    ("GAAGAGCAAUAUUACGUAUG", "false (0)"),
    ("GCACAGCAAUAUUACGGGGA", "false (0)"),
    ("CCUGAGCAAUAUUACGCUGC", "false (0)"),
    ("GUUAAGCAAUAUUACGGCGA", "true (1)"),
    ("AUGGAGCAAUAUUACGAGCU", "false (0)"),
    ("CGAGAGCAAUAUUACGUCAG", "false (0)"),
    ("GGUUAGCAAUAUUACGUUAC", "false (0)"),
    ("UGUGAGCAAUAUUACGGAGA", "false (0)"),
    ("GGUAAGCAAUAUUACGCGGU", "false (0)"),
    ("UCAGAGCAAUAUUACGACCA", "false (0)"),
    ("ACAAAGCAAUAUUACGUUAG", "false (0)"),
    ("GAGAAGCAAUAUUACGUACA", "true (1)"),
    ("AGUUAGCAAUAUUACGCAAG", "false (0)"),
    ("AAGCAGCAAUAUUACGUGUC", "false (0)"),
    ("GCUUAGCAAUAUUACGGUAA", "false (0)"),
    ("CCCAAGCAAUAUUACGCCAA", "false (0)"),
    ("CGUGAGCAAUAUUACGCCGG", "false (0)"),
    ("CUUAAGCAAUAUUACGCUUU", "false (0)"),
    ("UGAUAGCAAUAUUACGGCGC", "false (0)"),
    ("UGCAAGCAAUAUUACGGACU", "true (1)"),
    ("UCACAGCAAUAUUACGCCCU", "false (0)"),
    ("CCGAAGCAAUAUUACGAGCG", "true (1)"),
    ("AACUAGCAAUAUUACGGUCG", "true (1)"),
    ("UUGAAGCAAUAUUACGUCCU", "true (1)"),
    ("CCACAGCAAUAUUACGGGUA", "false (0)"),
    ("ACAAAGCAAUAUUACGGGUA", "true (1)"),
    ("CAUCAGCAAUAUUACGGCCA", "false (0)"),
    ("GACUAGCAAUAUUACGUCCC", "true (1)"),
    ("UAAGAGCAAUAUUACGUGAU", "false (0)"),
    ("CUCGAGCAAUAUUACGGCUG", "false (0)"),
    ("UAACAGCAAUAUUACGGCAA", "true (1)"),
    ("CGCGAGCAAUAUUACGAAUU", "false (0)"),
    ("GGAUAGCAAUAUUACGACGA", "true (1)"),
    ("AACAAGCAAUAUUACGCGGU", "false (0)"),
    ("ACUCAGCAAUAUUACGUCGG", "true (1)"),
    ("CAAUAGCAAUAUUACGCGGG", "false (0)"),
    ("CAUUAGCAAUAUUACGCCCU", "false (0)"),
    ("AGUUAGCAAUAUUACGGCUU", "false (0)"),
    ("UUUGAGCAAUAUUACGUGGG", "false (0)"),
    ("UAUCAGCAAUAUUACGCCAU", "true (1)"),
    ("CAAGAGCAAUAUUACGAAUU", "false (0)"),
    ("GAAAAGCAAUAUUACGCCAC", "false (0)"),
    ("CACGAGCAAUAUUACGAUUA", "false (0)"),
    ("GCUCAGCAAUAUUACGCACG", "false (0)"),
    ("ACAAAGCAAUAUUACGCUAC", "false (0)"),
    ("AGGAAGCAAUAUUACGCGGA", "false (0)"),
    ("ACACAGCAAUAUUACGGCGC", "true (1)"),
    ("ACGUAGCAAUAUUACGACUA", "true (1)"),
    ("UGUAAGCAAUAUUACGAAGC", "false (0)"),
    ("UCUCAGCAAUAUUACGCGUU", "false (0)"),
    ("CCUGAGCAAUAUUACGACGA", "false (0)"),
    ("GAGAAGCAAUAUUACGCAAU", "false (0)"),
    ("CGACAGCAAUAUUACGAAGG", "true (1)"),
    ("GGGUAGCAAUAUUACGGCUG", "true (1)"),
]
